- ASSAY_SYSTEM: TRPML2 (Homo sapiens)
- Construct: expressed in transfected cells
- Sequence (Q8IZK6 1-566): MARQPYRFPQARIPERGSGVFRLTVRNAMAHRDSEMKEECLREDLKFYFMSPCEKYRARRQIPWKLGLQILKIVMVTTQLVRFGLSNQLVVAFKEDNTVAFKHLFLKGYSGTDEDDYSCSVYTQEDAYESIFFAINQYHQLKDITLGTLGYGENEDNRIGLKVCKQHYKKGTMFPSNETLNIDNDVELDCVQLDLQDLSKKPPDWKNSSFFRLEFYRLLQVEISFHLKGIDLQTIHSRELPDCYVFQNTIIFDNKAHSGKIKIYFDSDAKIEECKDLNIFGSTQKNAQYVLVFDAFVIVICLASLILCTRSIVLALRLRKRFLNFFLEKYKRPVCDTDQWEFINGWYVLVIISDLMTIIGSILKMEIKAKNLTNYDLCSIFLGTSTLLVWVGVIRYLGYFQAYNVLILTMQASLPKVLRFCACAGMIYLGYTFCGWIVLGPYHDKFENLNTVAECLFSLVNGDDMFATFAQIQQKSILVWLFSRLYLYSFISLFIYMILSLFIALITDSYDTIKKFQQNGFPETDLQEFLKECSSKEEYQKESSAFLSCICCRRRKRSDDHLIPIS
- ASSAY_SUMMARY: Fluorescent TRPML2 assay (performed as for TRPML1, substituting the TRPML2 subtype)
- Format: cell-based
Give EC50 for every item shown.

EC50 reading for `C[C@@H]1CN(c2ncnc3c2c(CC(F)(F)F)cn3-c2cc(C#N)ccn2)[C@@H](C)CN1C(=O)OC(C)(C)C` : 500 to 2000 nM

Sample `C[C@@H]1CN(c2ncnc3c2c(C(F)(F)F)cn3-c2ccccn2)[C@@H](C)CN1C(=O)OC(C)(C)C` ; EC50 observed: > 2000 nM

Per the records, this molecule ( `C[C@@H]1CN(c2ncnc3c2c(C(F)F)cn3-c2cc(C#N)ccn2)[C@@H](C)CN1C(=O)OC(C)(C)C` ) has EC50 equal to 100 to 500 nM

Note to self: EC50 recorded for `C[C@@H]1CN(c2ncnc3c2c(C(F)(F)F)cn3-c2cc(F)cc(F)c2)[C@@H](C)CN1C(=O)OC1(C)CC1` was 500 to 2000 nM

Quick note, EC50 for `C[C@H]1CN(C(=O)OC(C)(C)C)CCN1c1nccc2c1c(N1CCC1)cn2-c1cccc(F)c1` landed at 100 to 500 nM

# EC50 of `C[C@@H]1CN(c2ncnc3c2c(C(F)(F)F)cn3-c2cccc(C#N)c2)[C@@H](C)CN1C(=O)OC(C)(C)C` = 500 to 2000 nM

So for `[2H]C([2H])([2H])C(OC(=O)N1C[C@@H](C)N(c2ncnc3c2c(C(F)(F)F)cn3-c2cc(C#N)ccn2)C[C@H]1C)(C([2H])([2H])[2H])C([2H])([2H])[2H]` , the logged EC50 turned out to be 500 to 2000 nM

Record summary for C[C@@H]1CN(c2ncnc3c2c(C(F)(F)F)cn3C2CCCC(C#N)C2)[C@@H](C)CN1C(=O)OC(C)(C)C (stereo partly drawn) : reported EC50 = > 2000 nM

get_value(item= `Cc1cn(-c2cc(C(F)(F)F)ccn2)c2ccnc(N3C[C@@H](C)N(C(=O)OC(C)(C)C)C[C@@H]3C)c12` , readout=EC50) returns 500 to 2000 nM

Short answer for `C[C@H]1CN(C(=O)OC2(C)CC2)CCN1c1ncnc2c1c(C(F)(F)F)cn2-c1cccc(Cl)c1` : EC50 was 500 to 2000 nM

Record `C[C@H]1CN(C(=O)OC(C)(C)C)CCN1c1ncnc2c1c(N(C)C1CC1)cn2-c1cccc(C#N)c1` . Reported EC50: 100 to 500 nM

So, `C[C@H]1CN(C(=O)OC(C)(C)C)CCN1c1nccc2c1c(C1CCC1)cn2-c1cccc(F)c1` ? Its EC50 was 500 to 2000 nM

The value of EC50 measured for the molecule `[2H]C([2H])([2H])C(OC(=O)N1C[C@H](C)N(c2ncnc3c2c(C(F)F)cn3-c2cc(C#N)ccn2)C[C@H]1C)(C([2H])([2H])[2H])C([2H])([2H])[2H]` turned out to be 100 to 500 nM

Note to self: EC50 recorded for `COc1ccnc(-n2cc(C3CC3)c3c(N4C[C@@H](C)N(C(=O)OC(C)(C)C)C[C@@H]4C)ncnc32)c1` was 500 to 2000 nM

Looking up `Cc1cn(-c2cc(F)cc(F)c2)c2ncnc(N3CCN(C(=O)OC(C)(C)C)C[C@@H]3C)c12` , I found its EC50 recorded as 100 to 500 nM

Reported EC50 for `CCc1cn(-c2cc(F)ccn2)c2ncnc(N3C[C@@H](C)N(C(=O)OC(C)(C)C)C[C@@H]3C)c12` was < 100 nM

Per the records, this molecule ( `C[C@@H]1CN(c2ncnc3c2c(C2CCC2)cn3-c2cc(F)cc(F)c2)[C@@H](C)CN1C(=O)OC(C)(C)C` ) has EC50 equal to 500 to 2000 nM

Value of measured EC50 for the entry `Cc1cn(-c2cccc(Cl)c2)c2ncnc(N3CCN(C(=O)OC(C)(C)C)C[C@@H]3C)c12` : < 100 nM

The measured EC50 associated with `Cc1cn(-c2cccc(C(F)(F)F)c2)c2ncnc(N3C[C@@H](C)N(C(=O)OC(C)(C)C)C[C@@H]3C)c12` reads 100 to 500 nM

Lab note: measured EC50 of `CC(C)c1cn(-c2cc(C(F)(F)F)ccn2)c2ncnc(N3C[C@@H](C)N(C(=O)OC(C)(C)C)C[C@@H]3C)c12` was 100 to 500 nM

For reference, reported EC50 for `CC(C)(C)OC(=O)N1CCN(c2ncnc3c2c(N2CCCC2)cn3-c2cc(C#N)ccn2)C(C)(C)C1` stands at 100 to 500 nM

All values here come from patent US20250136606A1.
